# assay-details: Primary qHTS assay for inhibitors of alpha-synuclein gene (SNCA) expression; note: nearly all actives have a fitted effect of over 45% in size
# settings: HEK-293 SNCA-luciferase knock-in, luminescence, 24 h; series mostly up to 57.2 µM
Screen size: about 140,000 compounds; about 240 (0.17%) were called active. Inconclusive results (about 9%) are left out. Calls come from the whole dose curve; as a rule, active = well fitted inhibition curve with a large enough effect; inconclusive = small, poorly fitted or top-dose-only effect; inactive = no such curve, though single readings can be large or run the other way. Shown is part of a subset that was picked to be rich in actives.
Response enum: true (1) = active, false (0) = inactive

Query: Returns: the outcome recorded for CC(C)CN(CC1CN(C(=O)Cc2cccs2)CCO1)C(=O)c1cccc2ccccc12 (stereo unspecified) in this assay.
Response: false (0)

Query: Returns: the outcome recorded for CS(=O)(=O)N(Cc1ccccn1)C1CN(C(=O)NCCc2ccccc2)C1 in this assay.
Response: false (0)

Query: Returns: the outcome recorded for Cc1ccccc1-c1ccnc(-c2nnc(C)n2C(C)C)c1 in this assay.
Response: false (0)

Query: Returns: the outcome recorded for CN(C)CCc1c[nH]c2ccc(Cn3cncn3)cc12 in this assay.
Response: true (1)

Query: Returns: the outcome recorded for COCCN1C(=O)N(C)C(=O)C12CCN(Cc1cc(F)ccc1F)C2 (stereo unspecified) in this assay.
Response: false (0)

Query: Returns: the outcome recorded for Cc1nc(N2CCC(NCCNc3ccncc3C)CC2)c2ccsc2n1 in this assay.
Response: false (0)

Query: Returns: the outcome recorded for COc1ccc2[nH]cc(CCNc3cc(-c4ccccc4CN(C)C)ncn3)c2c1 in this assay.
Response: false (0)

Query: Returns: the outcome recorded for COC(=O)c1cccc(NC(=O)N2CCc3c(nc4cc(-c5ccccc5)[nH]n4c3=O)C2)c1 in this assay.
Response: false (0)

Query: Returns: the outcome recorded for CCCn1c(NCc2ccc(N(CC)CC)cc2)nc2ccccc21 in this assay.
Response: true (1)

Query: Returns: the outcome recorded for COCCN1C[C@H]2CN(C)c3ccccc3[C@@H]2N(C(=O)CC2CCCC2)CCC1=O in this assay.
Response: false (0)

Query: Returns: the outcome recorded for Cc1ccc(OCCn2c(CNc3ccccc3C)nc3ccccc32)cc1 in this assay.
Response: false (0)
